system: T1, Abp1, P15891
T1 sequence (P15891 535-592, looked up): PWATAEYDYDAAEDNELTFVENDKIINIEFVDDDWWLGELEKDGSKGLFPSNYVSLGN
assay.protocol: SPOT array
condition.context: median of control spots 935
Give SPOT intensity for every item shown.
// response body must contain only the number

Output measured SPOT intensity for this item: GATNNAPTLPKRKNP
36

Output measured SPOT intensity for this item: PLRRTVMSLPGNHDI
24

Output measured SPOT intensity for this item: RLSRLLLSLPPESFT
57

Output measured SPOT intensity for this item: TKIRRRPQQPLTDFT
121

Output measured SPOT intensity for this item: SLSRRRFSLPSMPNV
70

Output measured SPOT intensity for this item: RFKRHRLEFPFNESE
36

Output measured SPOT intensity for this item: SKSRLLIELPEGFFT
0
